Source listed as patent US10654917B2.

# method_summary: Biodistribution of technetium-labelled peptides
# Format: in vivo, CD1 mice
# experimental_setup: mouse, lung, 10 ug, total radioactivity; CD1 mice, iv; 1 hour; 10 μg; read-out: injected activity in Lung
# Experimental: To evaluate the capacity to cross the BBB in vivo, the selected peptides, pepH1 and pepH3, were analyzed for biodistribution in CD1 mice. The peptides were labelled with technetium at a final concentration of 8.5×10^−5 M and diluted in PBS. CD1 mice were injected (iv injection, tail vein). […] The tissues of interest were dissected and washed to remove excess blood, weighed, and measured for radioactivity. Technetium radioactivity of the different peptides was measured for different organs. […]
Residues, ends and D or L forms follow the SMILES beside them. *: point of attachment. X1 = Cc1nn(CCN(CCN)CCCC(=O)*)c(C)c1CC(=O)O
I'd appreciate it if you could supply tissue uptake at 1 h values for the items below.
Your answer should be a number followed by the unit of measure.

{"molecule": "CC[C@H](C)[C@H](NC(=O)CNC(=O)[C@H](C)NC(=O)CCCN(CCN)CCn1nc(C)c(CC(=O)O)c1C)C(=O)N[C@@H](CC(C)C)C(=O)N[C@@H](CCCCN)C(=O)N[C@@H](CCCNC(=N)N)C(=O)N[C@@H](Cc1c[nH]c2ccccc12)C(=O)O [^99mTc(CO)3-Pz^1-pepH3, metal not drawn] (X1-AGILKRW-OH; C-terminus assumed)", "attribute_measured": "tissue uptake at 1 h", "result": "1 %ID/g"}

Next molecule, tissue uptake at 1 h to be filled in.
Look up tissue uptake at 1 h for this molecule: Cc1nn(CCN(CCN)CCCC(=O)N[C@H](C(=O)N[C@@H](CCC(N)=O)C(=O)N[C@@H](CCC(N)=O)C(=O)N[C@@H](CC(C)C)C(=O)N[C@H](C(=O)N[C@@H](CCCCN)C(=O)N[C@@H](CCCNC(=N)N)C(=O)N[C@@H](Cc2ccccc2)C(=O)N[C@@H](CO)C(=O)N[C@@H](CC(C)C)C(=O)O)[C@@H](C)O)C(C)C)c(C)c1CC(=O)O [^99mTc(CO)3-Pz^1-pepH1, metal not drawn] (X1-VQQLTKRFSL-OH; C-terminus assumed)
1.4 %ID/g
